The reported numbers originate from patent US20130156779A1.

- SYSTEM_UNDER_TEST: T1, Full-length human HER3 extracellular domain (ECD) (human, UniProt P21860 20-643)
- T1 construct: also called human HER3 ECD; HER-3 ECD full length
- TEST: BIACORE 3000 SPR, mAb captured by anti-human Fc, ECD as analyte, 25 C
- Experimental: The binding kinetics of these antibodies for was assessed using a BIACORE™ 3000. Antibodies were captured on a CM5 biosensor chip to which an immobilized anti-human IgG (Fc specific) BIACORE™ (GE Healthcare cat# BR-1008-39) monoclonal antibody had been conjugated using supplied coupling buffer (9000 RU). […] Kinetics were determined by global fitting of data to the 1:1 Langmuir model using BIACORE™ Evaluation software. […]
MEASUREMENT_LABEL: log10 of Kd (log10 of the value in nM)
In our notation, the value equals log10 of Kd in nM.

Prompt: Consider the binder 15D5 H4L3 (antibody, V domains shown, To be rechecked) VH: QVQLVQSGAEVKKPGASVKVSCKASGYTFTDYNMNWVRQAPGQGLEWMGGINPNYGTTVYNQKFKGKVTLTVDTSISTAYMELSRLRSDDTAVYYCARMTTIVPFDYWGQGTTVTVSS VL: DIQMTQSPSSLSASVGDRVTITCRASQDISNYLNWYQQKPGKAPKLLIYYTSTLHSGVPSRFSGSGSGTDFTLTISSLQPEDFATYYCQQGYTLPWTFGQGTKLEIKR and give its measured log10 of Kd.
Response: 1.39

Prompt: Param item: Humanized 1D9 RR antibody (H6L2) (antibody, human IgG1, V domains shown, Human IgG1; also called 1D9 H6L2 RR antibody; h1D9 RR wt) VH: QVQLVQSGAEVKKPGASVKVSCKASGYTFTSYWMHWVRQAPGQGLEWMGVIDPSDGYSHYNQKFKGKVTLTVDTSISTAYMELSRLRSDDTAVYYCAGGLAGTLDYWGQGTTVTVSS VL: DIQMTQSPSSLSASVGDRVTITCRSSQSIVHSSGNTYLQWFQQKPGKAPKLLIYKVSNRFSGVPSRFSGSGSGTDFTLTISSLQPEDFAVYYCFQGSHVPWTFGQGTKLEIKRR
Response: 0.60

Prompt: // query: Chimeric 15D5 antibody (antibody, human IgG1, V domains shown, To be rechecked; also called Ch15D5; ch15D5) VH: EFQLQQSGPELVKPGASVKISCKASGYSFTDYNMNWVKQNNGKSLEWIGGINPNYGTTVYNQKFKGKATLTVDQSSSTAYMQLVSLTSEDSAVYYCARMTTIVPFDYWGQGTTLTVSS VL: DIQMTQTTFSLSASLGDRVTISCRASQDISNYLNWYQQKPDGTVKLLIYYTSTLHSGVPSRFSGSGSGTDYFLTIRNLEEEDIATYFCQQGYTLPWTFGGGTKLDIK
Response: 0.50

Prompt: Let us now turn to 1D9 H2L2 RR antibody (antibody, V domains shown, Humanized RR variant) VH: QVQLVQSGAEVKKPGASVKVSCKASGYTFTSYWMHWVRQAPGQGLEWMGVIDPSDGYSHYNQKFKGRVTMTRDTSISTAYMELSRLRSDDTAVYYCAGGLAGTLDYWGQGTTVTVSS VL: DIQMTQSPSSLSASVGDRVTITCRSSQSIVHSSGNTYLQWFQQKPGKAPKLLIYKVSNRFSGVPSRFSGSGSGTDFTLTISSLQPEDFAVYYCFQGSHVPWTFGQGTKLEIKR
Response: 1.13

Prompt: Another binder: 1D9 H6L3 RR antibody (antibody, V domains shown, Humanized RR variant) VH: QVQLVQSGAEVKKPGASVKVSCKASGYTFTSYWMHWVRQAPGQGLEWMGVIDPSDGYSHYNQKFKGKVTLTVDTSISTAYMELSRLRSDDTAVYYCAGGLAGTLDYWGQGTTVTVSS VL: DVQMTQSPSSLSASVGDRVTITCRSSQSIVHSSGNTYLQWYQQKPGKAPKLLIYKVSNRFSGVPSRFSGSGSGTDFTLTISSLQPEDFAVYYCFQGSHVPWTFGQGTKLEIKR
Response: 0.59

Prompt: Query 1D9 H0L9 RR antibody (antibody, V domains shown, Humanized RR variant; also called 1D9 HOL9 RR antibody) VH: QVQLVQSGAEVKKPGASVKVSCKASGYTFTSYWMHWVRQAPGQGLEWMGVIDPSDGYSHYNQKFKGRVTMTRDTSISTAYMELSRLRSDDTAVYYCARGLAGTLDYWGQGTTVTVSS VL: DVVMTQSPLSLPVTLGQPASISCRSSQSIVHSSGNTYLQWFQQRPGQSPKLLISKVSNRFSGVPDRFSGSGSGTDFTLKISRVEAEDVGVYYCFQGSHVPWTFGQGTKLEIKR next
Response: 1.58

Prompt: Cool, now 15D5 H1L1 antibody (antibody, V domains shown) VH: QFQLVQSGAEVKKPGASVKVSCKASGYSFTDYNMNWVKQAPGQGLEWIGGINPNYGTTVYNQKFKGKATLTVDQSISTAYMELSRLRSDDTAVYYCARMTTIVPFDYWGQGTTVTVSS VL: DIQMTQSPSSLSASVGDRVTITCRASQDISNYLNWYQQKPGKAPKLLIYYTSTLHSGVPSRFSGSGSGTDYTFTISSLQPEDIATYYCQQGYTLPWTFGGGTKVEIKR
Response: 0.86

Prompt: Do the same for 15D5 H2L2 antibody (antibody, V domains shown, Humanized 15D5 variant) VH: QVQLVQSGAEVKKPGASVKVSCKASGYTFTDYNMNWVKQAPGQGLEWIGGINPNYGTTVYNQKFKGKATLTVDQSISTAYMELSRLRSDDTAVYYCARMTTIVPFDYWGQGTTVTVSS VL: DIQMTQSPSSLSASVGDRVTITCRASQDISNYLNWYQQKPGKAPKLLIYYTSTLHSGVPSRFSGSGSGTDYTLTISSLQPEDFATYYCQQGYTLPWTFGQGTKLEIKR please
Response: 1.11

Prompt: Thanks! And 15D5 H3L1 antibody (antibody, V domains shown, Humanized 15D5 variant) VH: QVQLVQSGAEVKKPGASVKVSCKASGYTFTDYNMNWVRQAPGQGLEWMGGINPNYGTTVYNQKFKGKATLTVDQSISTAYMELSRLRSDDTAVYYCARMTTIVPFDYWGQGTTVTVSS VL: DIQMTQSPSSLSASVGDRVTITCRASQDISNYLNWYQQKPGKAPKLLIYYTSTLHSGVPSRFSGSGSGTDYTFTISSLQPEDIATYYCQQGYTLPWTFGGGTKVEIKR ?
Response: 0.62

Prompt: Repeat for the following binder: 1D9 H6L6 RR antibody (antibody, V domains shown, To be rechecked) VH: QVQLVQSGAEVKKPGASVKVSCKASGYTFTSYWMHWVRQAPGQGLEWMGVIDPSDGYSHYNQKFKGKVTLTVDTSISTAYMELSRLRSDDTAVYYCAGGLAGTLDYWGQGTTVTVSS VL: DVVMTQSPLSLPVTLGQPASISCRSSQSIVHSSGNTYLQWFQQRPGQSPRRLIYKVSNRFSGVPDRFSGSGSGTDFTLKISRVEAEDVGVYYCFQGSHVPWTFGQGTKLEIKR
Response: 0.85
